# System: LOX IMVI melanoma
# PROTOCOL SUMMARY: NCI tumour cell line growth inhibition, 48 h
PROPERTY NAME: TGI (µM)
Kindly answer with a numeric value in µM, unit omitted.

Some solved entries appear below for comparison.
molecule=CN(CCCNC(=O)c1[nH]nc2c1ccc1ccccc12)CCCNC(=O)c1[nH]nc2c1ccc1ccccc12 property_name=TGI measurement_units=µM result=25.9
molecule=c1ccc(OCC[P+](c2ccccc2)(c2ccccc2)c2ccccc2)cc1 property_name=TGI measurement_units=µM result=9.68
molecule="C#Cc1cccc(NC(=O)C2CCCCN2C(=O)CCl)c1 (stereo not given)" property_name=TGI measurement_units=µM result=18.6

Ask | Return reported TGI; argument: "Clc1ccc(Nc2nnc(COc3ccccc3)c3ccccc23)cc1"
Reply | 4.85
